biological target: CgnE; experiment: MST binding of CgnA (or leader peptide) to CgnE; set-up: species or system Chondromyces crocatus CM c5; conditions: Monolith NT 115, for CgnA: CgnE titrated, three independent samples, mean ± SD, read-out: KD (affinity) to CgnE
Sequence (as listed by the source): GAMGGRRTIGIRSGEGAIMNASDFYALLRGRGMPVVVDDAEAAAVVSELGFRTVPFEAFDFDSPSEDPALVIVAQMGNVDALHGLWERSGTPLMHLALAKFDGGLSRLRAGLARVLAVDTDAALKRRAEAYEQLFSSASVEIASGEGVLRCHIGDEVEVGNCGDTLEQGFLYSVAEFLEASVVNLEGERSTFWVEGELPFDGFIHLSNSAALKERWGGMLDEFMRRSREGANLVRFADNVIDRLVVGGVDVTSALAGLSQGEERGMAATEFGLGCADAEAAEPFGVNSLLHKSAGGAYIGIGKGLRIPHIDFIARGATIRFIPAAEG
recorded-metric: pKd
For clarity, pKd is expressed as the negative log10 of concentration in mol/L.

pKd reported for this sequence MTMKKTIKQISAGDRSKKGNIYW [CgnA] : 5.74
